- Test system: Enterococcus sp.
- measurement-protocol: In vitro antibacterial evaluation: minimum inhibitory concentration (MIC), broth dilution method
- Type: cell-based
- test-conditions: broth dilution, inoculum 5×10^5 CFU/mL, 18 hours at 35° C.
I'd be grateful if you could share measured MIC Enterococcus avium (GC 4558) for these entries.
Respond with the bare value in µg/mL.

What MIC Enterococcus avium (GC 4558) value was documented for this compound, COc1ccc(COCC2OC(OC3C(CO)OC(Oc4ccc(CC5NC(=O)C(C(C)c6ccccc6)NC(=O)CNC(=O)C(CO)NC(=O)C(C(O)C6CNC(=N)N6C6OC(CO)C(O)C(O)C6O)NC(=O)C(C(O)C6CNC(=N)N6)NC5=O)cc4)C(O)C3O)C(O)C(O)C2O)cc1 (stereo not shown) ?
32

Consider the compound CC(C)=CCCC(C)=CCOc1ccc(C2OCC3OC(OC4C(CO)OC(Oc5ccc(CC6NC(=O)C(C(C)c7ccccc7)NC(=O)CNC(=O)C(CO)NC(=O)C(C(O)C7CNC(=N)N7C7OC(CO)C(O)C(O)C7O)NC(=O)C(C(O)C7CNC(=N)N7)NC6=O)cc5)C(O)C4O)C(O)C(O)C3O2)cc1 (stereo not shown) and give its measured MIC Enterococcus avium (GC 4558).
2

Field request: MIC Enterococcus avium (GC 4558) | item: CC(c1ccccc1)C1NC(=O)CNC(=O)C(CO)NC(=O)C(C(O)C2CNC(=N)N2C2OC(CO)C(O)C(O)C2O)NC(=O)C(C(O)C2CNC(=N)N2)NC(=O)C(Cc2ccc(OC3OC(CO)C(OC4OC5COC(c6ccc(C(=O)c7ccccc7)cc6)OC5C(O)C4O)C(O)C3O)cc2)NC1=O (stereo not shown)
1

Can you look up the measured MIC Enterococcus avium (GC 4558) of CCCC(C)C1OCC2OC(OC3C(CO)OC(Oc4ccc(CC5NC(=O)C(C(C)c6ccc(Cl)cc6)NC(=O)CNC(=O)C(CO)NC(=O)C(C(O)C6CNC(=N)N6C6OC(CO)C(O)C(O)C6O)NC(=O)C(C(O)C6CNC(=N)N6)NC5=O)cc4)C(O)C3O)C(O)C(O)C2O1 (stereo not shown) for me?
2

Give its MIC Enterococcus avium (GC 4558) value. Item: CC(C)=CCOc1cccc(C2OCC3OC(OC4C(CO)OC(Oc5ccc(CC6NC(=O)C(C(C)c7ccccc7)NC(=O)CNC(=O)C(CO)NC(=O)C(C(O)C7CNC(=N)N7C7OC(CO)C(O)C(O)C7O)NC(=O)C(C(O)C7CNC(=N)N7)NC6=O)cc5)C(O)C4O)C(O)C(O)C3O2)c1 (stereo not shown)
16

Could you share which MIC Enterococcus avium (GC 4558) value was measured for CC(c1ccccc1)C1NC(=O)CNC(=O)C(CO)NC(=O)C(CC2CNC(=N)N2C2OC(CO)C(O)C(O)C2O)NC(=O)C(CC2CNC(=N)N2)NC(=O)C(Cc2ccc(OC3OC(CO)C(OC4OC5COC(c6ccc(OCc7ccccc7)cc6)OC5C(O)C4O)C(O)C3O)cc2)NC1=O (stereo not shown) ?
4

* * *

- Tested on: Enterococcus sp.
- measurement-protocol: In vitro antibacterial evaluation: minimum inhibitory concentration (MIC), broth dilution method
- Type: cell-based
- test-conditions: strain GC 3059
Record form. Attribute: MIC Enterococcus faecalis (GC 3059). Fill in for each entry.
Your answer should be a plain number; it is taken to be in µg/mL.

Given the molecule COc1cc(C2OCC3OC(OC4C(CO)OC(Oc5ccc(CC6NC(=O)C(C(C)c7ccccc7)NC(=O)CNC(=O)C(CO)NC(=O)C(C(O)C7CNC(=N)N7C7OC(CO)C(O)C(O)C7O)NC(=O)C(C(O)C7CNC(=N)N7)NC6=O)cc5)C(O)C4O)C(O)C(O)C3O2)ccc1[N+](=O)[O-] (centres unmarked) [Example 153] , what is its reported MIC Enterococcus faecalis (GC 3059)?
8

Given the entry Cc1ccc(Oc2ccc(C3OCC4OC(OC5C(CO)OC(Oc6ccc(CC7NC(=O)C(C(C)c8ccccc8)NC(=O)CNC(=O)C(CO)NC(=O)C(C(O)C8CNC(=N)N8C8OC(CO)C(O)C(O)C8O)NC(=O)C(C(O)C8CNC(=N)N8)NC7=O)cc6)C(O)C5O)C(O)C(O)C4O3)cc2)cc1 (centres unmarked) [Example 174] , report its measured MIC Enterococcus faecalis (GC 3059).
2

So what does the record say about MIC Enterococcus faecalis (GC 3059) for CC(c1ccccc1)C1NC(=O)CNC(=O)C(CO)NC(=O)C(C(O)C2CNC(=N)N2C2OC(CO)C(O)C(O)C2O)NC(=O)C(C(O)C2CNC(=N)N2)NC(=O)C(Cc2ccc(OC3OC(CO)C(OC4OC5COC(c6ccc(C(C)(C)C)cc6)OC5C(O)C4O)C(O)C3O)cc2)NC1=O (centres unmarked) [Example 147] ?
0.5

Query: MIC Enterococcus faecalis (GC 3059); subject: CC(c1ccccc1)C1NC(=O)CNC(=O)C(CO)NC(=O)C(C(O)C2CNC(=N)N2C2OC(CO)C(O)C(O)C2O)NC(=O)C(C(O)C2CNC(=N)N2)NC(=O)C(Cc2ccc(OC3OC(CO)C(OC4OC5COC(c6ccc(-c7cccs7)cc6)OC5C(O)C4O)C(O)C3O)cc2)NC1=O (centres unmarked) [Example 163]
8

Which MIC Enterococcus faecalis (GC 3059) reading was recorded for the molecule CC(c1ccccc1)C1NC(=O)CNC(=O)C(CO)NC(=O)C(C(O)C2CN(Cc3ccc(C(C)(C)C)cc3)C(=N)N2C2OC(CO)C(O)C(O)C2O)NC(=O)C(C(O)C2CNC(=N)N2)NC(=O)C(Cc2ccc(OC3OC(CO)C(OC4OC5COC6(OC5C(O)C4O)C4CC5CC(C4)CC6C5)C(O)C3O)cc2)NC1=O (centres unmarked) [Example 77] ?
16
